Biological target: Sodium channel protein type 9 subunit alpha (Homo sapiens, UniProt Q15858)
Sequence (Q15858 whole entry): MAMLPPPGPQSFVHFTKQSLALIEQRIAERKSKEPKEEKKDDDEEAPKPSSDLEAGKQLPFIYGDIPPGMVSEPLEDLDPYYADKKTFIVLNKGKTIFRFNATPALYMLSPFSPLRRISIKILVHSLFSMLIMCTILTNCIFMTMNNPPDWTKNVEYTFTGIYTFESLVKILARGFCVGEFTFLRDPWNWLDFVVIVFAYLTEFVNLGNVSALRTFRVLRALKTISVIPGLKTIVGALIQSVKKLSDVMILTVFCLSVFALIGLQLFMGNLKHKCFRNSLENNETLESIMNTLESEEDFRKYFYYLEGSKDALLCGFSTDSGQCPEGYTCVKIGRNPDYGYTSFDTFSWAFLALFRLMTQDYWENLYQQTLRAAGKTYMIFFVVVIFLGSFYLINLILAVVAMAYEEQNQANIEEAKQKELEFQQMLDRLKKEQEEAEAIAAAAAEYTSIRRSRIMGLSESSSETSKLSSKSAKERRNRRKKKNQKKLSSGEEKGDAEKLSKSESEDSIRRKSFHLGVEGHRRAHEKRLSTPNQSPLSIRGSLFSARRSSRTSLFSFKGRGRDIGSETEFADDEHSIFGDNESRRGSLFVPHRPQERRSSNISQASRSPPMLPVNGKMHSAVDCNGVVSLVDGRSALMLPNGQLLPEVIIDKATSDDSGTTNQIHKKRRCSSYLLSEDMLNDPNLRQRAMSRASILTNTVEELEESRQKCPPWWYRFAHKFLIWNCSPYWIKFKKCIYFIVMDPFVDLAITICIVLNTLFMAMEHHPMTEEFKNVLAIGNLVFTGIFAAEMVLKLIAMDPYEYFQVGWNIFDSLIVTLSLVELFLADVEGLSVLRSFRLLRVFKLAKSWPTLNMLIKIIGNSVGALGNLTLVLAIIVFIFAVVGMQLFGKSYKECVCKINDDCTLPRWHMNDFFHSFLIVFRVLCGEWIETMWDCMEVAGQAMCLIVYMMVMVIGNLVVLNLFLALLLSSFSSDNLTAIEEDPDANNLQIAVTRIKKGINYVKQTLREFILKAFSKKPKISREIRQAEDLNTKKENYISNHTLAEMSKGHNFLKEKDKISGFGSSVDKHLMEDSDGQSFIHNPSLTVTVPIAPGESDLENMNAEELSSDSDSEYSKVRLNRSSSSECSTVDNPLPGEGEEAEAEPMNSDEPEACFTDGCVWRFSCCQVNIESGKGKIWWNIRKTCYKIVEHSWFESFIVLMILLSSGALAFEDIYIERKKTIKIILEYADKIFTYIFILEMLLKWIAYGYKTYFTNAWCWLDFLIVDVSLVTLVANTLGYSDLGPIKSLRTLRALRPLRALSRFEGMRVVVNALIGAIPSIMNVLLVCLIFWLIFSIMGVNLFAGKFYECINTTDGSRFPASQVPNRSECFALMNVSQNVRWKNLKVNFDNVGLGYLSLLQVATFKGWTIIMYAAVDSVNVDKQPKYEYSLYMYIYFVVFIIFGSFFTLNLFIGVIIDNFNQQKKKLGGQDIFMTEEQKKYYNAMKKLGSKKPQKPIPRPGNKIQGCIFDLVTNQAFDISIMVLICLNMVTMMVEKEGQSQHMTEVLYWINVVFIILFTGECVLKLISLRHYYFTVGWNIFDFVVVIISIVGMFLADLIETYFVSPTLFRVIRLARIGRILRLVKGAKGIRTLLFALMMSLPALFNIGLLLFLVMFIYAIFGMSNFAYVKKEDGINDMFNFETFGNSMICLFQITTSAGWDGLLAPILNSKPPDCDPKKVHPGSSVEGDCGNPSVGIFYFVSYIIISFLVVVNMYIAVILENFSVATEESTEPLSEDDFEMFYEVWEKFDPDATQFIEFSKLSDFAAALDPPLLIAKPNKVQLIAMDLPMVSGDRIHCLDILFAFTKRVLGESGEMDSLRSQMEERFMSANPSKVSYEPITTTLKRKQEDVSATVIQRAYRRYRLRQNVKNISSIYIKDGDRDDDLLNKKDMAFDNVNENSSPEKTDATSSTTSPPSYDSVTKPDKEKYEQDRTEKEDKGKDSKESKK
Assay: Inhibition of human Nav1.7 expressed in HEK293 cells assessed as reduction in peak inward current by manual whole cell patch clamp electrophysiology assay
Assay type: cell-based
readout: pIC50
Here pIC50 is given on a logarithmic scale as minus log10 of the concentration in mol/L.

# input Return pIC50 measured with Sodium channel protein type 9 subunit alpha (Homo sapiens, UniProt Q15858) given this compound: `COc1cc(C(=O)NS(C)(=O)=O)c(F)cc1-c1cnc(Oc2cc(F)ccc2F)c(Cl)c1`
# output 7.29

---

Target: Sodium channel protein type 4 subunit alpha (Homo sapiens)
Sequence (P35499 whole entry): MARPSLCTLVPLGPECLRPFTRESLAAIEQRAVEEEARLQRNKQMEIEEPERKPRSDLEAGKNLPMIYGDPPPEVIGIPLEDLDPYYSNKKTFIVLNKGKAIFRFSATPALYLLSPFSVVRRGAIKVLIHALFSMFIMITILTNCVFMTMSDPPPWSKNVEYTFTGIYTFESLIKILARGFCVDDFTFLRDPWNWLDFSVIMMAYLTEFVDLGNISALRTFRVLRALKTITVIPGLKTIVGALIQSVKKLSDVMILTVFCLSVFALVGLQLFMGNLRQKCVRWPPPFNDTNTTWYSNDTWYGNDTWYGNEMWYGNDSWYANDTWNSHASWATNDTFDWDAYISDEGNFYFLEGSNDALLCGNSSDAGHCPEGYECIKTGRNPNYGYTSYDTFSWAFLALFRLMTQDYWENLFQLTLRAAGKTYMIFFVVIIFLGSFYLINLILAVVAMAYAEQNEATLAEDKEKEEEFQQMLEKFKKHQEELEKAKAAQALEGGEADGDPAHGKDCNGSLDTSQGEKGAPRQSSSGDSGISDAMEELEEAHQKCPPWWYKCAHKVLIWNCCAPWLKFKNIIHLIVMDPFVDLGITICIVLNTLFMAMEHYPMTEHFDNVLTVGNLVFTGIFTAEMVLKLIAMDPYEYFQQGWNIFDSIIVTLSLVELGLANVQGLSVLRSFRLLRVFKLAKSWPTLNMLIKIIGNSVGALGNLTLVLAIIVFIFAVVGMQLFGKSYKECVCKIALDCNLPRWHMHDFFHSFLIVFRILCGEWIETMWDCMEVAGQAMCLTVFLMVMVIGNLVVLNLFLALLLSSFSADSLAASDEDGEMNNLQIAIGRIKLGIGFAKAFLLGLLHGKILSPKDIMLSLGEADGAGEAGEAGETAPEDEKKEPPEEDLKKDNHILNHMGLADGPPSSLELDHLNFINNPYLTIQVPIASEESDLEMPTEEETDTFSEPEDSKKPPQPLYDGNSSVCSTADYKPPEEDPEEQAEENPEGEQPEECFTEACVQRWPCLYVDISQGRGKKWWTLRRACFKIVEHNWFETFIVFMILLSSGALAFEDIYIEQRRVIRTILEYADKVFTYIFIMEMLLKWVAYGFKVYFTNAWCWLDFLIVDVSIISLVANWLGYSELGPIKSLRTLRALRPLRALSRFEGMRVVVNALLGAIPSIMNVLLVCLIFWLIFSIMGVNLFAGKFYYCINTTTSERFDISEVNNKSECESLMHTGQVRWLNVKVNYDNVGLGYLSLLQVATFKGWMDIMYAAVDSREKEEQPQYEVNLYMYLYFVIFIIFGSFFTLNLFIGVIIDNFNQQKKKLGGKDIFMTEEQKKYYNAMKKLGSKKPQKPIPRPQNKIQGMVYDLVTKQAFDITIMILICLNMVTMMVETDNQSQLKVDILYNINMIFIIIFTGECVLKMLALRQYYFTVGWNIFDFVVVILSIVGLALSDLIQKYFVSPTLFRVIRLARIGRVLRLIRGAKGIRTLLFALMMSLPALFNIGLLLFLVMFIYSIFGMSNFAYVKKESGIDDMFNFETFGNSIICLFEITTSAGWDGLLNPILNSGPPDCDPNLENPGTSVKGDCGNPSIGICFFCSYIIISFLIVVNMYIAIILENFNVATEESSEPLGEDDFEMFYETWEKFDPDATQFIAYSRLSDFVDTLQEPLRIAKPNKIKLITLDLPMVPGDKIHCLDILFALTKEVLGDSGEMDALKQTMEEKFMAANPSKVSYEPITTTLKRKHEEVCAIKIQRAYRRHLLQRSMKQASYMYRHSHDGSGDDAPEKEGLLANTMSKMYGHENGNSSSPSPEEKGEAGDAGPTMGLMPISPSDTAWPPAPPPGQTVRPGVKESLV
Test: Inhibition of human Nav1.4 expressed in HEK293 cells assessed as reduction in peak inward current by manual whole cell patch clamp electrophysiology assay
readout: pIC50
Please express pIC50 as -log10 of the molar concentration.

# input Give its pIC50 value. Item: `COc1cc(C(=O)NS(C)(=O)=O)c(F)cc1-c1cnc(Oc2cc(F)ccc2F)c(Cl)c1`
# output 5.96
